- method_notes: binders from COS7 lysate, DM2A8 probe, primary screen, torsin A project, cell lysate, small-molecule microarray, fluorescence 635/667 (AID 1065)
- condition_context: higher = more signal, COS7 lysate expressing mutant human TOR1A
assay_readout: composite z-score
Number, no unit, nothing else.

molecule	assay_result
C#CCNC(=O)[C@H](Cc1ccccc1)NC(=O)CCC(=O)O	-0.267
CCN(CC)c1ccc(N2CC=CC34O[C@@H]5/C=C\CCC(C)OC(=O)C5[C@H]3C(=O)N(C(CO)C(C)C)[C@@H]4C2=O)cc1 (stereo not given in full)	-0.892

May I ask what composite z-score has been recorded for `COCCOC(=O)N1C(=O)[C@@]2(c3cc(C#CC4=CCCCC4)ccc31)[C@H](C(N)=O)[C@H]1C(=O)O[C@H](c3ccccc3)[C@H](c3ccccc3)N1[C@@H]2c1ccc(OCCO)cc1` ? 0.897

What about this molecule? `C=CCNC(=O)[C@H]1[C@@H]2C(=O)O[C@@H](c3ccccc3)[C@@H](c3ccccc3)N2[C@@H](c2ccc(OCCO)cc2)[C@]12C(=O)Nc1ccc(C#CC3=CCCCC3)cc12` 0.218

// next record `[N-]=[N+]=Nc1ccccc1C[C@@]1(C(=O)NCCN2CCOCC2)N=C(c2ccc(OCCCO)cc2)O[C@@H]1c1ccccc1` 0.205

Proceed to `CCOC(=O)C=Cc1cc([N+](=O)[O-])ccc1O` -0.11

Next entry: `CC(=O)NCCCC[C@@H]1NC(=O)[C@@H]2C[C@H](C(=O)NCCCCN(C)C)[C@H](c3cccc(OCCO)c3)N2C1=O` 0.537

Also, C#CCN(Cc1ccccc1Br)C(/C=C/c1ccccc1)CO (stereo not given) please. 0.0837

Next: `CN(C)C(=O)[C@]1(Cc2ccccc2N=[N+]=[N-])N=C(c2ccc(OCCCO)cc2)O[C@@H]1c1ccccc1` 0.227

Request: CC(CO)N1C(=O)[C@@H]2C3C(=O)OCCC/C=C\[C@H]3OC23C=CCN(c2ccc4ccccc4c2)C(=O)[C@@H]13 (stereo not given in full) -0.933

Now the molecule `COc1ccc([C@H]2OC[C@@H]3CC4(CC=CC4)C(=O)N32)cc1` -0.407

Now give it for `C=C(COC)/C(=C/C[C@@H](OC(C)=O)c1ccc(CO)o1)c1cnc2ccccc2c1` too. 0.434
